Molecular target: T1, P6SHb
T1 chain: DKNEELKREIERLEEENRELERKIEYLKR
Experiment: two-hybrid library CCNG1;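 further: natural log of median RNA to DNA barcode read ratio; higher means stronger binding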
Please go through the items and note down their interaction score.
Answer as a number with no unit attached.

Input DENEKLEREIRELEREIEKLEKKNRYLKE [P11SHb] . Output interaction score: 1.17

Input DKIEELKRKIEKLKRENERLERENEWLER [P4SHb] . Output interaction score: 0.8

Input DKNEELKRENEELERKIERLKEKIRYLKE [P10SHb] . Output interaction score: 1.07

Input DEIKELEEEIRELEEKNEELKRKNEWLKR [P3SHb] . Output interaction score: 0.81
